Recorded values, source patent US20100204219A1.

Biological target: βCat-BCL9 (beta-Catenin/BCL9-BCL9L interaction) (Homo sapiens, UniProt P35222)
Sequence (P35222 1-781): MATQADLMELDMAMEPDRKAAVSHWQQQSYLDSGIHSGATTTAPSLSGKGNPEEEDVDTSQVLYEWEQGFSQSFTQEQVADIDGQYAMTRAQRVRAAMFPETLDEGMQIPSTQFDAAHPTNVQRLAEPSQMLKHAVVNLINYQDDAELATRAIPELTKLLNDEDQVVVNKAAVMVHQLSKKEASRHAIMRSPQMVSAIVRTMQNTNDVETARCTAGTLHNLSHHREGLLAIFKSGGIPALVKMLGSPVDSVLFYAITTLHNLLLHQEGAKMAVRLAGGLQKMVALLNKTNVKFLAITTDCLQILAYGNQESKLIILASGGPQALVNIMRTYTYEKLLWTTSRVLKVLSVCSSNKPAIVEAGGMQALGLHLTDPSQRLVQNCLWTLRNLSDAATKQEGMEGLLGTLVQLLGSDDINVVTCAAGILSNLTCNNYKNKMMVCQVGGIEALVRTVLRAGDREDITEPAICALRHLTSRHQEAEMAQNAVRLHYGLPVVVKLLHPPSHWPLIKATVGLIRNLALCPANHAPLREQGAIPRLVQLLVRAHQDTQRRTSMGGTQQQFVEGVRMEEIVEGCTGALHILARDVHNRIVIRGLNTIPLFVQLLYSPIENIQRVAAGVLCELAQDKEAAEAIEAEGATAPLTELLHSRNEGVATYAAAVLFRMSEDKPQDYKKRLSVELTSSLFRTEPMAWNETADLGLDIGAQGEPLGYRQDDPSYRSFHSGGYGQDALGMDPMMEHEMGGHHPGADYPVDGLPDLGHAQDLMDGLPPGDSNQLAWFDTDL
Assay: ELISA based protein-protein interaction assay, βCat-BCL9
Conditions: Example 1
pIC50: −log10 of the molar value.
attributeMeasured: pIC50

Solved entries (count: 6):
1. O=C(O)c1ccc(NC(=O)c2ccc(C(=O)Nc3ccc(C(=O)O)cc3)cc2)cc1 [TGC0012290]	< 4.30
2. Cc1ccccc1C(=O)Nc1ccc(-c2cnc(-c3ccc(NC(=O)c4ccccc4C)cc3)nc2)cc1 [TGC0011529]	< 4.00
3. O=C(NCc1ccc(F)cc1)c1ccc(C(=O)NCc2ccc(F)cc2)nc1 [TGC0011337]	< 5.00
4. COC(=O)c1ccc(NC(=O)c2ccc(C(=O)Nc3ccc(C(=O)OC)cc3)nc2)cc1 [TGC0011288]	5.70
5. O=C(NCCc1ccc(F)cc1)c1ccc(C(=O)NCCc2ccc(F)cc2)nc1 [TGC0011447]	< 4.30
6. O=C(Nc1cc(C(F)(F)F)ccc1Cl)c1ccc(C(=O)Nc2cc(C(F)(F)F)ccc2Cl)nc1 [TGC0011278]	< 4.00

# return recorded pIC50 for entry CC(=O)c1ccc(NC(=O)c2ccc(C(=O)Nc3ccc(C(C)=O)cc3)nc2)cc1 [TGC0011285] 5.22

# return recorded pIC50 for entry O=C(c1ccc(C(=O)N2CCCc3ccccc32)nc1)N1CCCc2ccccc21 [TGC0011425] < 4.60
